target system: NS5A-6HIS (full length NS5A, genotype 1b, Con1) (Hepatitis C virus (isolate Con1), UniProt Q9WMX2)
Construct: mature NS5A cut from HCV genome polyprotein; full length residues 1-447 with N-terminal amphipathic helix, C-terminal 6His tag kept; Sf9 baculovirus, C12E8 solubilised, phosphorylated
Sequence (Q9WMX2 1973-2419): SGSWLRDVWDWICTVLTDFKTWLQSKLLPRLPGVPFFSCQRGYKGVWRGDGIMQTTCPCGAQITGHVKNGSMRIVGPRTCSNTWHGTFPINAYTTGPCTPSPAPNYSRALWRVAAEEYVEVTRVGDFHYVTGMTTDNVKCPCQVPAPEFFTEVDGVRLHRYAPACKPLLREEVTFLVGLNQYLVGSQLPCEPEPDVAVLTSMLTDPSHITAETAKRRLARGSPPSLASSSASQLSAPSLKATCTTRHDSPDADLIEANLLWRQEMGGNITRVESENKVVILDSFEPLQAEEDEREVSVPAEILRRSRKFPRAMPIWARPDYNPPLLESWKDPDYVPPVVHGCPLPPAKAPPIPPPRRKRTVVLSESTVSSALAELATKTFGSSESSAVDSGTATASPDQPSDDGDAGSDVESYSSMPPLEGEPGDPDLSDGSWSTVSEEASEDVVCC
test details: competition of 3H-LDV binding, Ni-NTA capture
condition description: read-out: no competition up to 100 μM
pIC50: −log10 of the molar value.
parameter measured: pIC50

Query string: # return recorded pIC50 for input O=C1N[C@H]2[C@H](CS[C@H]2CCCCC(=O)N2CCC[C@H]2C(=O)Nc2ccc(/C=C/c3ccc(NC(=O)[C@@H]4CCCN4C(=O)Cc4ccccc4)cc3)cc2)N1 [BMS-Biotin]
Result string: < 4.00

Data origin, for the record: paper PMC4391872
